Tested on: Vicia faba
Assay: Herbicidal activity against Vicia faba assessed as inhibition of 1 mM of L-[3H]theronine uptake in leaf at 1 mM after 1 hr by liquid scintillation counting analysis relative to untreated control
Type: functional
The source made the active and inactive calls. The calls are words filed in the database; no cut-off is given here.

Smiles input: N[C@@H](CCCCNC(=O)CCCOc1ccc(Cl)cc1Cl)C(=O)O
inhibition: Active
--
Smiles input: N[C@@H](CCCCNC(=O)COc1ccc(Cl)cc1Cl)C(=O)O
inhibition: Active
--
Smiles input: Cc1cc(Cl)ccc1OCC(=O)NCCCC[C@H](N)C(=O)O
inhibition: Active

----------
Assay: Solubility in organic solvents
Format: physicochemical

Smiles input: Cc1cc(Cl)ccc1OCC(=O)NCCCC[C@H](N)C(=O)O
solubility: Insoluble
//
Smiles input: N[C@@H](CCCCNC(=O)CCCOc1ccc(Cl)cc1Cl)C(=O)O
solubility: Insoluble
//
Smiles input: N[C@@H](CCCCNC(=O)COc1ccc(Cl)cc1Cl)C(=O)O
solubility: Insoluble
//
Smiles input: Nc1ccc(OCC(=O)NCCCC[C@H](N)C(=O)O)cc1
solubility: Insoluble

Where do the numbers come from? From ChEMBL document CHEMBL3045675.
